Test: A CellTox Green Cytotoxicity Assay to monitor cytotoxicity in HepG2 cells - 32 hour (AID 1224883); note: nearly all actives have a fitted effect of over 50% in size
Conditions: CellTox Green fluorescence; series mostly up to 76.8 µM
Results filed as inconclusive are left out. Active and inactive are the calls of the source. Calls come from the whole dose curve; as a rule, active = well fitted activation curve with a large enough effect in the repeat runs; inconclusive = weak or mixed curves; inactive = flat fitted curve, though single readings scatter.
Mark one answer only. Choices: active, inactive

**Query** Recorded call for CCC1(CC)C(=O)N=C(O)NC1=O ?
**Result** inactive

**Query** Recorded call for CC1=C2C[C@H]3[C@@H](CC=C4C[C@@H](O)CC[C@@]43C)[C@@H]2CC[C@]12O[C@@H]1C[C@H](C)CN[C@H]1[C@H]2C ?
**Result** active

**Query** Recorded call for CCCCN(CCCC)C(=S)[S-].CCCCN(CCCC)C(=S)[S-].[Ni+2] ?
**Result** inactive

**Query** Recorded call for CC(C)C(Br)C(=O)NC(N)=O (configuration not stated) ?
**Result** inactive

**Query** Recorded call for Oc1cccc(Cl)c1Cl ?
**Result** inactive

**Query** Recorded call for C=CCBr ?
**Result** inactive

**Query** Recorded call for CCCCCON=O ?
**Result** inactive

**Query** Recorded call for CCC[CH2][Sn]([CH2]CCC)([CH2]CCC)[O][Sn]([CH2]CCC)([CH2]CCC)[CH2]CCC ?
**Result** active

**Query** Recorded call for Brc1ccc(Oc2ccc(Br)cc2Br)c(Br)c1 ?
**Result** inactive

**Query** Recorded call for COc1ccc(Cc2nccc3cc(OC)c(OC)cc23)cc1OC ?
**Result** inactive

**Query** Recorded call for Cc1nn(-c2cc(NS(C)(=O)=O)c(Cl)cc2Cl)c(=O)n1C(F)F ?
**Result** inactive

**Query** Recorded call for Cc1c([N+](=O)[O-])cc2c(c1[N+](=O)[O-])C(C)(C)CC2(C)C ?
**Result** inactive

====

Experiment: qHTS assay to identify small molecule that activate the aryl hydrocarbon receptor (AhR) signaling pathway - cell viability counter screen (AID 743086); note: nearly all actives have a fitted effect of over 45% in size
Details: HepG2-AhR-luc viability, CellTiter-Fluor, 24 h; series mostly up to 70.3 µM
Records with an inconclusive call do not appear. Activity calls are given as the source filed them. Calls come from the whole dose curve; as a rule, active = well fitted cell-killing curve with a large enough effect in the repeat runs; inconclusive = weak or mixed curves, or effect the other way; inactive = flat fitted curve, though single readings scatter.
Mark one answer only. Choices: class 1 for active, class 0 for inactive

**Query** Recorded call for COP(=O)(OC)O/C(=C\Cl)c1cc(Cl)c(Cl)cc1Cl ?
**Result** class 0

**Query** Recorded call for O=C(NC(=O)c1ccccc1Cl)Nc1ccc(OC(F)(F)F)cc1 ?
**Result** class 0

**Query** Recorded call for C#CC1(O)CCCCC1 ?
**Result** class 0

**Query** Recorded call for CCCCN(CCCC)C(=S)[S-].CCCCN(CCCC)C(=S)[S-].[Ni+2] ?
**Result** class 0

**Query** Recorded call for O=[N+]([O-])c1ccc(Cl)c(Cl)c1Cl ?
**Result** class 0

**Query** Recorded call for Cc1cc2c3c(c1)C(c1ccccc1)=N[C@@H](NC(=O)c1ccncc1)C(=O)N3CC2 ?
**Result** class 0

**Query** Recorded call for ClC1(Cl)C2(Cl)C3(Cl)C4(Cl)C(Cl)(Cl)C5(Cl)C3(Cl)C1(Cl)C5(Cl)C24Cl (centres undefined) ?
**Result** class 0

**Query** Recorded call for COc1ccc2c3c1O[C@H]1[C@H](O)CC[C@H]4[C@@H](C2)N(C)CC[C@@]341 ?
**Result** class 0

**Query** Recorded call for C=CC(=C)C ?
**Result** class 0

**Query** Recorded call for CC(=O)[O][Pb]([c]1ccccc1)([c]1ccccc1)[c]1ccccc1 ?
**Result** class 1

**Query** Recorded call for Oc1cccc(Cl)c1Cl ?
**Result** class 0

**Query** Recorded call for NC1CCC(CC2CCC(N)CC2)CC1 (centres undefined) ?
**Result** class 0

**Query** Recorded call for COc1c2c(cc3c1OCO3)CCN(C)C2 ?
**Result** class 0

**Query** Recorded call for O=[N+]([O-])c1cc(C(F)(F)F)c(Cl)c([N+](=O)[O-])c1Nc1ncc(C(F)(F)F)cc1Cl ?
**Result** class 1

**Query** Recorded call for CCN(CC)Cc1nccn1-c1ccc([N+](=O)[O-])cc1C(=O)c1ccccc1Cl ?
**Result** class 0

**Query** Recorded call for C=CCOC(=O)c1ccccc1N ?
**Result** class 0

**Query** Recorded call for C[C@]12C/C(=C/O)C(=O)C[C@@H]1CC[C@@H]1[C@@H]2CC[C@@]2(C)[C@H]1CC[C@]2(C)O ?
**Result** class 0

**Query** Recorded call for Clc1cc(Cl)c(-c2cc(Cl)c(Cl)cc2Cl)cc1Cl ?
**Result** class 0

**Query** Recorded call for CNN ?
**Result** class 0

**Query** Recorded call for COP(=S)(NC(C)C)Oc1ccc(C)cc1[N+](=O)[O-] (centres undefined) ?
**Result** class 0

**Query** Recorded call for COP(=O)(OC)Oc1ccc([N+](=O)[O-])cc1 ?
**Result** class 0

**Query** Recorded call for CC(C)=CC1C(C(=O)OC(C#N)c2cccc(Oc3ccccc3)c2)C1(C)C (centres undefined) ?
**Result** class 0

**Query** Recorded call for CCCCn1cc[n+](C)c1.[Cl][Fe-]([Cl])([Cl])[Cl] ?
**Result** class 0

**Query** Recorded call for COc1nc(C)nc(NC(=O)NS(=O)(=O)c2ccccc2Cl)n1 ?
**Result** class 0
